Data provenance: paper PMC10126473

Test: Hamster PK and lung concentration study (non-compartmental analysis)
Settings: male, LVG golden Syrian, hamster, in vivo, po, 30 mg/kg, Tmax Observed, hamsters, PO 30 mg/kg PDN, plasma
parameter: Tmax (min)
State just the number; it will be interpreted in min.

Briefly, Tmax measured for O=C(Nc1ccc([N+](=O)[O-])cc1Cl)c1cc(Cl)ccc1OC(=O)N1CCNCC1 [PDN] : 30

* * *

Assay: Mouse PK and tissue distribution study (non-compartmental analysis)
Conditions: male, C57BL/6, mouse, in vivo, iv, 3 mg/kg, t1/2 Obs, mice, IV 3 mg/kg PDN, spleen
parameter: half-life (h)
Give the number; h is assumed, so skip it.

Measured half-life of O=C(Nc1ccc([N+](=O)[O-])cc1Cl)c1cc(Cl)ccc1OC(=O)N1CCNCC1 [PDN] : 3.44

* * *

Assay: Mouse PK and tissue distribution study (non-compartmental analysis)
Settings: male, C57BL/6, mouse, in vivo, iv, 10 mg/kg, terminal t1/2 in plasma, mice, IV 3 and 10 mg/kg PDN
parameter: half-life

Form field half-life, entry O=C(Nc1ccc([N+](=O)[O-])cc1Cl)c1cc(Cl)ccc1OC(=O)N1CCNCC1 [PDN] : 3.1 to 3.5 h

* * *

Experiment: Mouse PK and tissue distribution study (non-compartmental analysis)
Conditions: male, C57BL/6, mouse, in vivo, po, 10 mg/kg, Tmax Obs, mice, PO 10 mg/kg PDN, lung
parameter: Tmax (h)
I only need the number, in h, no unit after it.

Measured Tmax, `O=C(Nc1ccc([N+](=O)[O-])cc1Cl)c1cc(Cl)ccc1OC(=O)N1CCNCC1` : 1.5

* * *

Assay: Mouse PK and tissue distribution study (non-compartmental analysis)
Details: male, C57BL/6, mouse, in vivo, po, 10 mg/kg, t1/2 Obs, mice, PO 10 mg/kg PDN, liver
parameter: half-life (min)
Expressed in min, but write only the number.

Record `O=C(Nc1ccc([N+](=O)[O-])cc1Cl)c1cc(Cl)ccc1OC(=O)N1CCNCC1` . Reported half-life: 142

* * *

Assay: Mouse PK and tissue distribution study (non-compartmental analysis)
Details: male, C57BL/6, mouse, in vivo, iv, 10 mg/kg, total plasma clearance (CLp), mice, IV 3 and 10 mg/kg PDN
parameter: clearance

Notebook: `O=C(Nc1ccc([N+](=O)[O-])cc1Cl)c1cc(Cl)ccc1OC(=O)N1CCNCC1` , clearance read as 1.02 to 1.05 mL/min

* * *

Assay: Mouse PK and tissue distribution study (non-compartmental analysis)
Details: male, C57BL/6, mouse, in vivo, iv, 10 mg/kg, t1/2 in all other tissues, mice, IV 3 and 10 mg/kg PDN
parameter: half-life

response.value for `O=C(Nc1ccc([N+](=O)[O-])cc1Cl)c1cc(Cl)ccc1OC(=O)N1CCNCC1` (field: half-life) = 1.7 to 4.8 h

* * *

Experiment: Mouse PK and tissue distribution study (non-compartmental analysis)
Conditions: male, C57BL/6, mouse, in vivo, iv, 10 mg/kg, t1/2 Obs, mice, IV 10 mg/kg PDN, kidney
parameter: half-life (h)
API: value field is a number in h; no unit string.

// field: half-life; key: `O=C(Nc1ccc([N+](=O)[O-])cc1Cl)c1cc(Cl)ccc1OC(=O)N1CCNCC1` ; value = 4.78

* * *

Assay: Hamster PK and lung concentration study (non-compartmental analysis)
Conditions: male, LVG golden Syrian, hamster, in vivo, iv, 3 mg/kg, t1/2 Observed, hamsters, IV 3 mg/kg PDN, plasma
parameter: half-life (min)
Expressed in min, but write only the number.

For reference, reported half-life for O=C(Nc1ccc([N+](=O)[O-])cc1Cl)c1cc(Cl)ccc1OC(=O)N1CCNCC1 [PDN] stands at 66

* * *

Experiment: Mouse PK and tissue distribution study (non-compartmental analysis)
Details: male, C57BL/6, mouse, in vivo, iv, 10 mg/kg, t1/2 Obs, mice, IV 10 mg/kg PDN, heart
parameter: half-life (h)
# unit: h | format: bare number

// half-life value for `O=C(Nc1ccc([N+](=O)[O-])cc1Cl)c1cc(Cl)ccc1OC(=O)N1CCNCC1` : 2.86

* * *

Experiment: in vivo
Details: male, C57BL/6, mouse, in vivo, iv, 10 mg/kg
Recorded AUC(0-inf) for the following compounds
Please respond with the number in ng·h/mL and leave the unit unwritten.

- compound: "O=C(Nc1ccc([N+](=O)[O-])cc1Cl)c1cc(Cl)ccc1O [Nc, Niclosamide, reference compound]"
  AUC(0-inf) [ng·h/mL]: 1390

Switching to the query record.
Record summary for `O=C(Nc1ccc([N+](=O)[O-])cc1Cl)c1cc(Cl)ccc1OC(=O)N1CCNCC1` : reported AUC(0-inf) = 4100

* * *

Experiment: Mouse PK and tissue distribution study (non-compartmental analysis)
Settings: male, C57BL/6, mouse, in vivo, po, 10 mg/kg, Cmax Obs, mice, PO 10 mg/kg PDN, muscle
parameter: Cmax (ng/g)
Express your answer in ng/g, writing the number without its unit.

`O=C(Nc1ccc([N+](=O)[O-])cc1Cl)c1cc(Cl)ccc1OC(=O)N1CCNCC1` has a reported Cmax of 1120

* * *

Assay: Mouse PK and tissue distribution study (non-compartmental analysis)
Details: male, C57BL/6, mouse, in vivo, po, 10 mg/kg, Cmax Obs, mice, PO 10 mg/kg PDN, spleen
parameter: Cmax (ng/g)
Quick reminder: number only, in ng/g, skip the unit.

The molecule identified as O=C(Nc1ccc([N+](=O)[O-])cc1Cl)c1cc(Cl)ccc1OC(=O)N1CCNCC1 [PDN] registered its Cmax at 8080

* * *

Listed here: items and their measured AUC(0-inf).
Assay: in vivo
Settings: male, C57BL/6, mouse, in vivo, po, 10 mg/kg
Dear colleague, please return just the value in µg·h/mL, with no unit written.

- compound: "O=C(Nc1ccc([N+](=O)[O-])cc1Cl)c1cc(Cl)ccc1O [Nc, Niclosamide, reference compound]"
  AUC(0-inf) (µg·h/mL): 1.61

Next, consider the following compound.
Looking up O=C(Nc1ccc([N+](=O)[O-])cc1Cl)c1cc(Cl)ccc1OC(=O)N1CCNCC1 [PDN] , I see its AUC(0-inf) listed as 3.52

* * *

Assay: Mouse PK and tissue distribution study (non-compartmental analysis)
Settings: male, C57BL/6, mouse, in vivo, po, 10 mg/kg
parameter: Vd/F (L)
Hi! Could you send only the number? It should be in L, unit omitted.

Input `O=C(Nc1ccc([N+](=O)[O-])cc1Cl)c1cc(Cl)ccc1OC(=O)N1CCNCC1` . Output Vd/F: 0.33

* * *

Test: Mouse PK and tissue distribution study (non-compartmental analysis)
Conditions: male, C57BL/6, mouse, in vivo
parameter: Kp

response.value for `O=C(Nc1ccc([N+](=O)[O-])cc1Cl)c1cc(Cl)ccc1OC(=O)N1CCNCC1` (field: Kp) = 8 to 44

* * *

Assay: Mouse PK and tissue distribution study (non-compartmental analysis)
Details: male, C57BL/6, mouse, in vivo, iv, 3 mg/kg, t1/2 Obs, mice, IV 3 mg/kg PDN, heart
parameter: half-life

Query `O=C(Nc1ccc([N+](=O)[O-])cc1Cl)c1cc(Cl)ccc1OC(=O)N1CCNCC1` yields half-life of 1.71 h

* * *

Experiment: Mouse PK and tissue distribution study (non-compartmental analysis)
Conditions: male, C57BL/6, mouse, in vivo, iv, 3 mg/kg, t1/2 Obs, mice, IV 3 mg/kg PDN, adipose
parameter: half-life (h)
Give the value, in units of h, as a plain number.

# compound `O=C(Nc1ccc([N+](=O)[O-])cc1Cl)c1cc(Cl)ccc1OC(=O)N1CCNCC1` ; its half-life = 2.78

* * *

Assay: Hamster PK and lung concentration study (non-compartmental analysis)
Conditions: male, LVG golden Syrian, hamster, in vivo, iv, 3 mg/kg
parameter: Vd (L)
I only need the number, in L, no unit after it.

Value of measured Vd for the entry O=C(Nc1ccc([N+](=O)[O-])cc1Cl)c1cc(Cl)ccc1OC(=O)N1CCNCC1 [PDN] : 0.74
